# assay-target: Growth hormone secretagogue receptor type 1 (Homo sapiens, UniProt Q92847)
# Sequence (Q92847 whole entry): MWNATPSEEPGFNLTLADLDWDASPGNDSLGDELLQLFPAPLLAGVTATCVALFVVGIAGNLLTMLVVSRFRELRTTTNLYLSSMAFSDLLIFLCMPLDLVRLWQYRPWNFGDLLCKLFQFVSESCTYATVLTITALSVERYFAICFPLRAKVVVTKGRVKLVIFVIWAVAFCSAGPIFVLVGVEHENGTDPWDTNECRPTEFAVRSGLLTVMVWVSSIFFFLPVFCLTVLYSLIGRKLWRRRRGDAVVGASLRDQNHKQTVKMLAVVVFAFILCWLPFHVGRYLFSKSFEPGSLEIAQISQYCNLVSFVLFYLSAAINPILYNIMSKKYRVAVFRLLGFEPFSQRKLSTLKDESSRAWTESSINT
# protocol-summary: Inverse agonist activity at SNAP-tagged human GHSR expressed in HEK293T cells assessed as reduction in inositol phosphate production after 30 mins by HTRF assay
Non-standard residues stand in square brackets, D forms with d. Residues, ends and D or L forms follow the SMILES beside them. Nle = CCCC[C@H](N)C(=O)O
The compounds listed here are annotated with their EC50.
Give a bare numeral; the unit nM is implied.

Illustrative cases are given below, each with its answer.
CCCC[C@H](N)C(=O)N[C@H](C(=O)N1CCC[C@H]1C(=O)N[C@@H](Cc1ccccc1)C(=O)N[C@@H](Cc1c[nH]c2ccccc12)C(=O)N[C@@H](CCCNC(=N)N)C(=O)NCC(=O)N[C@H](C(=O)N[C@@H](CO)C(=O)N[C@@H](CC(C)C)C(=O)N[C@@H](CCCNC(=N)N)C(=O)N1CCC[C@H]1C(N)=O)C(C)C)[C@@H](C)O (H-[Nle]TPFWRGVSLRP-NH2); 46
CCCC[C@H](N)C(=O)N[C@H](C(=O)N1CCC[C@H]1C(=O)N[C@@H](Cc1ccccc1)C(=O)N[C@@H](Cc1c[nH]c2ccccc12)C(=O)N[C@@H](CCCNC(=N)N)C(=O)NCC(=O)N[C@H](C(=O)N[C@@H](CO)C(=O)N[C@@H](CC(C)C)C(=O)N[C@@H](CCCNC(=N)N)C(=O)N1CCC[C@H]1C(=O)N[C@H](C(=O)NCC(=O)O)[C@@H](C)CC)C(C)C)[C@@H](C)O (H-[Nle]TPFWRGVSLRPIG-OH); 76.4
CCCC[C@H](N)C(=O)N[C@H](C(=O)N1CCC[C@H]1C(=O)N[C@@H](Cc1ccccc1)C(=O)N[C@@H](Cc1c[nH]c2ccccc12)C(=O)N[C@@H](CCCNC(=N)N)C(=O)NCC(=O)N[C@H](C(N)=O)C(C)C)[C@@H](C)O (H-[Nle]TPFWRGV-NH2); 368

Please turn your attention to the following entry.
Q) Which EC50 reading was recorded for the compound CCCC[C@H](N)C(=O)N[C@H](C(=O)N1CCC[C@H]1C(=O)N[C@@H](Cc1ccccc1)C(=O)N[C@@H](Cc1c[nH]c2ccccc12)C(=O)N[C@@H](CCCNC(=N)N)C(N)=O)[C@@H](C)O (H-[Nle]TPFWR-NH2) ?
A) 6630

###

# assay-target: Growth hormone secretagogue receptor type 1 (Homo sapiens)
# protocol-summary: Inverse agonist activity at SNAP-tagged human GHSR expressed in HEK293T cells assessed as reduction in inositol phosphate production after 30 mins by HTRF assay
Non-standard residues stand in square brackets, D forms with d. Residues, ends and D or L forms follow the SMILES beside them. Nle = CCCC[C@H](N)C(=O)O
property-label: EC50 (µM)
Write down the numeric answer in µM and omit the unit.

CCCC[C@H](N)C(=O)N[C@H](C(=O)N1CCC[C@H]1C(=O)N[C@@H](Cc1ccccc1)C(=O)N[C@@H](Cc1c[nH]c2ccccc12)C(=O)N[C@@H](CCCNC(=N)N)C(=O)NCC(=O)N[C@H](C(=O)N[C@@H](CO)C(=O)N[C@@H](CC(C)C)C(=O)N[C@@H](CCCNC(=N)N)C(=O)N1CCC[C@H]1C(=O)N[C@H](C(=O)NCC(N)=O)[C@@H](C)CC)C(C)C)[C@@H](C)O (H-[Nle]TPFWRGVSLRPIG-NH2); 0.048

API: the following record is the query input.
Q) Entry under review: CCCC[C@H](N)C(=O)N[C@H](C(=O)N1CCC[C@H]1C(=O)N[C@@H](Cc1ccccc1)C(=O)N[C@@H](Cc1c[nH]c2ccccc12)C(=O)N[C@@H](CCCNC(=N)N)C(=O)NCC(=O)N[C@H](C(=O)N[C@@H](CO)C(=O)N[C@@H](CC(C)C)C(N)=O)C(C)C)[C@@H](C)O (H-[Nle]TPFWRGVSL-NH2) . Reported EC50?
A) 0.134

###

# assay-target: Growth hormone secretagogue receptor type 1 (Homo sapiens, UniProt Q92847)
# protocol-summary: Displacement of […] from SNAP-tagged human GHSR expressed in HEK293T cells after 3 hrs by HTRF assay
Non-standard residues stand in square brackets, D forms with d. Residues, ends and D or L forms follow the SMILES beside them. Nle = CCCC[C@H](N)C(=O)O
property-label: pKi
Remember, pKi is on a log scale: it is -log10 of the molar concentration.

CCCC[C@H](N)C(=O)N[C@H](C(=O)N1CCC[C@H]1C(=O)N[C@@H](Cc1ccccc1)C(=O)N[C@@H](Cc1c[nH]c2ccccc12)C(=O)N[C@@H](CCCNC(=N)N)C(=O)NCC(=O)N[C@H](C(N)=O)C(C)C)[C@@H](C)O (H-[Nle]TPFWRGV-NH2); 8.19

// next entry
Q) I would be grateful if you could share the reported pKi for CCCC[C@H](N)C(=O)N[C@H](C(=O)N1CCC[C@H]1C(=O)N[C@@H](Cc1ccccc1)C(=O)N[C@@H](Cc1c[nH]c2ccccc12)C(=O)N[C@@H](CCCNC(=N)N)C(=O)NCC(=O)N[C@H](C(=O)N[C@@H](CO)C(=O)N[C@@H](CC(C)C)C(=O)N[C@@H](CCCNC(=N)N)C(=O)N1CCC[C@H]1C(N)=O)C(C)C)[C@@H](C)O (H-[Nle]TPFWRGVSLRP-NH2) .
A) 8.57
